Source of measurements: PubChem BioAssay AID588856

# assay.remarks: qHTS for Inhibitors of TGF-b: Cytotox Counterscreen
# condition.label: HepG2 CAGA-GFP viability, ATP luminescence, 18 h; series mostly up to 46.1 µM
The whole screen tested about 410,000 compounds, of which about 3,100 (0.76%) were called active. Calls come from the whole dose curve; as a rule, active = well fitted cell-killing curve with a large enough effect; inactive = no such curve, though single readings can be large or run the other way. This excerpt belongs to a sample that is enriched for actives.
Write down one outcome, taken from true (1) for active, false (0) for inactive

Some solved entries appear below for comparison.
{"columns": ["molecule", "class"],
 "data": [
  ["Cc1cc(C)c(NC(=O)Cn2c(SCC(=O)NCc3ccccc3)nc3ccccc32)c(C)c1", "false (0)"],
  ["CCOc1ccc(C(=O)/C=C/c2cn(CC(O)CN3CCCCCC3)c3ccccc23)cc1 (stereo not drawn)", "true (1)"]
]}

Req: Hi, sorry to bother you, what did the test record for O=C(NCc1ccc(Cl)cc1)c1ccc2c(c1)nnn2C1CCCC1 ?
Resp: false (0)

Req: One more molecule: O=C(/C=C/c1cn(CC(O)CN2CCc3ccccc32)c2ccccc12)c1ccc(Br)cc1 (stereo not drawn)
Resp: false (0)

Req: One more molecule: CCCn1c(NCc2ccccc2F)nc2ccccc21
Resp: false (0)

Req: One more molecule: CCCCN1C(=O)c2[nH]nc(-c3ccccc3O)c2C1c1cccc(OCc2ccccc2)c1 (stereo not drawn)
Resp: true (1)

Req: One more molecule: COc1ccc(N2C(=O)CS(=O)(=O)C23C(=O)N(Cc2ccc(C)cc2)c2ccccc23)cc1Cl (stereo not drawn)
Resp: false (0)

Req: One more molecule: C[N+]1(CC(=O)c2cccs2)CCOCC1
Resp: false (0)

Req: One more molecule: Cc1ccc(S(=O)(=O)N2CCN(c3nc(-n4cnc5ccccc54)nc4ccccc34)CC2)cc1
Resp: false (0)

###

# assay.remarks: qHTS for Inhibitors of TGF-b: Cytotox Counterscreen
# condition.label: HepG2 CAGA-GFP viability, ATP luminescence, 18 h; series mostly up to 46.1 µM
Hit rate of the full screen: of about 410,000 compounds, about 3,100 (0.76%) were called active. Calls come from the whole dose curve; as a rule, active = well fitted cell-killing curve with a large enough effect; inactive = no such curve, though single readings can be large or run the other way. What follows is part of a selection rich in actives, with near analogues and random picks from the rest.
Write down one outcome, taken from Yes = active, No = inactive

Some solved entries appear below for comparison.
{"columns": ["compound", "class"],
 "data": [
  ["C=C1CCN(C(CC(C)C)C(=O)N2CCOCC2)S(=O)(=O)c2ccccc21 (stereo unspecified)", "No"],
  ["Cc1cccc(CC(=O)N2CC(=O)Nc3ccc(F)cc3C2c2ccccc2)c1 (stereo unspecified)", "No"],
  ["COc1ccccc1CN1CCC(CNC(=O)c2cnn(-c3ccccc3Cl)c2C2CCN(C(=O)OC(C)(C)C)CC2)CC1", "No"],
  ["O=C(O)c1ccc(Cn2c(SCc3ccc(F)cc3)nc3ccncc32)cc1", "No"],
  ["Cc1cccc(Nc2nc(C)nc(N)c2S(=O)(=O)c2ccccc2)c1", "No"]
]}

Req: Hi, sorry to bother you, what did the test record for O=C(NCCc1ccccc1)c1cnc2sc(N3CCCC3)nn2c1=O ?
Resp: No

Req: One more compound: CCCn1nc(C(=O)NNC(=O)CSCC(=O)Nc2cc(C)on2)c2ccccc2c1=O
Resp: Yes

Req: One more compound: CCCCn1nc(C(=O)Nc2cccc(C(=O)NC3CC3)c2)c2ccccc2c1=O
Resp: No

Req: One more compound: CCN(CC)CCNC(=O)Cn1ncc2c3ccccc3n(Cc3ccccc3C)c2c1=O
Resp: Yes

Req: One more compound: Cc1cccc(NC(=O)Cn2c(=O)n(CCC(C)C)c(=O)c3cccnc32)c1
Resp: No

Req: One more compound: CCCCCCn1nnc2sc(-c3ccccc3)cc2c1=O
Resp: No

Req: One more compound: CCCCCCCCCCOC(=O)Cn1c(COc2cccc(OC)c2)[n+](C)c2ccccc21
Resp: Yes
